# ASSAY_SYSTEM: T1, cynomolgus CCR8 (cynomolgus, UniProt G7NYJ2 1-355)
# T1 construct: whole, on cells
# T1 sequence (G7NYJ2 entry or part of it): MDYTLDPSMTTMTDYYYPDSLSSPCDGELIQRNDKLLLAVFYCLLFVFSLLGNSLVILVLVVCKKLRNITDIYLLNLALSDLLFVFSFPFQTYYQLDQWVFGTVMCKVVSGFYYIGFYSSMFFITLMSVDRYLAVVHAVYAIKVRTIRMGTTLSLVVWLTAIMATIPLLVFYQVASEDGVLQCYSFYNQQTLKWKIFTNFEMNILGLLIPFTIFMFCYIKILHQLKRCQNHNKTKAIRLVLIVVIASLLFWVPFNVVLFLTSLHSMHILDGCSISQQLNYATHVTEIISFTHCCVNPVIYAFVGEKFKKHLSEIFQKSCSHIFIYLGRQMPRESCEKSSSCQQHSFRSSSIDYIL
# TEST_SUMMARY: FACS on HEK293-cynomolgus CCR8 cells

BINDER | EC50 / nM
149F2C10_N28I (antibody, V domains shown, NG site removed variant of 149F2C10) VH: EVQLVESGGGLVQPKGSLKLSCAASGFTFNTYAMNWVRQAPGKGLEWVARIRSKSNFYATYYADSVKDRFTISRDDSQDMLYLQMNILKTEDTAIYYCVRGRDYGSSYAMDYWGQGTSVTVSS VL: DIVMTQAAPSVPVTPGESVSISCRSSKSLLHSIGNTYLYWFLQRPGQSPQLLIYRMSNLASGVPDRFSGSGSGTAFTLRISRVEAEDVGVYYCMQHLEYPLTFGAGTKLELK | 0.314

Data origin: patent US20250034266A1
